- Assay notes: Toxicity liver stage against HepG2, at 10uM
- Format: cell-based
- Design: test concentration 10 uM, cell line HepG2-A16-CD81EGFP
- Condition notes: human, HepG2-A16-CD81EGFP cells; read-out: INHIBITION
Listing of recorded cytotoxicity at 10 µM by entry.
The figure you give is taken to be in %; do not add the unit.

Worked cases, cytotoxicity at 10 µM given:
• CC(C)(CNC(=O)CSc1nnnn1C1CC1)c1ccccc1F = 13.4
• CNc1oc(-c2ccc(OC)c(S(=O)(=O)N3CCCCC3)c2)nc1C#N = 10.4
• COc1ccccc1OCCCn1c(C)c(C)oc1=O = 0.129
• N#Cc1cccnc1N1CCCC(CO)(Cc2ccc(F)cc2)C1 (stereo not drawn) = 3.3
• CC1(C(=O)N2CCN(C3CCCC3)CC2)CNCCO1 (stereo not drawn) = 6.26
• Cc1nc(CNC(=O)CC2C(=O)NCCN2Cc2ccccc2C)n[nH]1 (stereo not drawn) = -7.21

API: the following record is the query input.
# input Would you kindly share the measured cytotoxicity at 10 µM for NC(=O)CSCC(=O)NCC1CCCC1 ?
# output 3.15
